B1: library; numbered along this chain (parent)
chain: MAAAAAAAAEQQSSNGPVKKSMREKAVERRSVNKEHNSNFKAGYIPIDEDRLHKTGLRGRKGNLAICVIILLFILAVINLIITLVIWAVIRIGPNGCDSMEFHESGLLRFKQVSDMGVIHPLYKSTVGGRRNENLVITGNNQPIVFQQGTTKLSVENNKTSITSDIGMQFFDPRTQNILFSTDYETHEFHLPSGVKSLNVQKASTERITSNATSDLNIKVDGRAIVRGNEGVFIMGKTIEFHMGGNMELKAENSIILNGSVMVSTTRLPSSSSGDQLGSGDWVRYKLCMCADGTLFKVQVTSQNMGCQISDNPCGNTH

Variants of: B1
Test: SGCB cell-surface expression functional score (HA stain, bin4 vs bin1, normalised to synonymous) (log10 ratio); higher = more cell-surface SGCB (functional)
So basically, the class depends on measured SGCB cell-surface expression functional score (log10), and the ranges are low-valued = under -1, mid-valued = from -1 up to 0.1, high-valued = 0.1 and over

mutation_notation	group
G128I	mid-valued
F189H	low-valued
I218Y	low-valued
F146T	low-valued
G62E	high-valued
I74T	mid-valued
H103V	high-valued
D172S	high-valued
E24D	high-valued
I309Y	mid-valued

Now for another entry.
Q: # classify by SGCB cell-surface expression functional score (log10) band: `T182R`
A: low-valued
